Source of measurements: patent US6333176A

systemName: peptide amidase from Xanthomonas maltophilia (Stenotrophomonas maltophilia)
Construct: wild type, not recombinant
Sequence (Q8RJN5 34-540): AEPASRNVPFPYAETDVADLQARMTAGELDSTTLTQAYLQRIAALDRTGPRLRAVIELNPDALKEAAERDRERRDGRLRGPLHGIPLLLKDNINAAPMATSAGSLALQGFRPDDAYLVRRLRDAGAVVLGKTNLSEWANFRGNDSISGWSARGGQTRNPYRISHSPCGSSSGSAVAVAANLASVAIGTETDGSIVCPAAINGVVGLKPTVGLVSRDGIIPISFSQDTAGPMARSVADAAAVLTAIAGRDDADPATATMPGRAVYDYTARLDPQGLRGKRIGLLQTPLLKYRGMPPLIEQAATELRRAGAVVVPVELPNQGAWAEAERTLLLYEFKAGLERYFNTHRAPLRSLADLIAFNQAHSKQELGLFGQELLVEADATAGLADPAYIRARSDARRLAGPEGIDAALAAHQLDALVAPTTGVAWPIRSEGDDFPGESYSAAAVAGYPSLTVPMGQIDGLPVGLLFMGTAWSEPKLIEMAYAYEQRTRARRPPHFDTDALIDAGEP
measurementNotes: Substrate spectrum of peptide amidase, enzymatic determination of the released ammonia
Assay type: biochemical
appliedConditions: substrate 10 mM, 18 mU peptide amidase per ml, 50 mM tris/HCl pH 7.5, 30° C., 3 hours
Peptide text beside a SMILES is read from it.
Catalogue of Relative conversion (conversion of dipeptide amides, Table 4a) readings, one per entry.
Please respond with the number in % and leave the unit unwritten.

Would you please look over these solved cases?
compound	unitInfo	result
NC(=O)[C@@H]1CCCN1C(=O)[C@@H](N)Cc1ccc(O)cc1 [Tyr-Pro-NH2] (H-Tyr-Pro-NH2)	%	0
NC(=O)CNC(=O)[C@@H](N)Cc1ccc(O)cc1	%	54

Can you share its Relative conversion (conversion of dipeptide amides, Table 4a)? I mean this compound: CC(C)[C@H](N)C(=O)N[C@@H](Cc1ccccc1)C(N)=O [Val-Phe-NH2] (H-Val-Phe-NH2)
140
